FYI, the data here is from ChEMBL document CHEMBL3351278.

Parameter Retention_time: see the listing below.
Assay remarks: Retention time of the compound by HPLC method
Format: physicochemical
The response must be a number in min with no trailing unit.

CCNC(=O)Nc1ccc(C(=O)Nc2cc(Cl)ccc2C)cn1
1.77
CCNC(=O)Nc1cc(N2CCN(C)CC2)c(C(=O)Nc2nccs2)cn1
1.18

[in] Using known records, supply Retention_time for CCNC(=O)Nc1ccc(C(=O)Nc2cccnc2)cn1
[out] 1.25

* * *

Tested on: DNA gyrase (Escherichia coli, UniProt P0AES4+P0AES6)
Assay remarks: Inhibition of Escherichia coli GyrB A2B2 subunits assessed reduction in DNA supercoiling activity by malachite green dye based by spectrophotometry
Criterion: IC50 strictly under 0.1 µM. Met: label 1. Not met: label 0.

// known answers, use as guide
CCNC(=O)Nc1cc(N2CCN(C)CC2)c(C(=O)Nc2cccc(Cl)c2)cn1
label 0
CCNC(=O)Nc1cc(Nc2cccc(O)c2)c(C(=O)Nc2cccnc2)cn1
label 1
CCNC(=O)Nc1ccc(C(=O)Nc2cc(Cl)ccc2C)cn1
label 0

[in] Hello, is IC50 of the following molecule strictly smaller than 0.1 µM? CCNC(=O)Nc1cc(Nc2ccccc2)c(C(=O)Nc2cccc(C)c2)cn1
[out] label 0

[in] Input CCNC(=O)Nc1cc(-n2ccnc2)c(C(=O)Nc2cccc(Cl)c2)cn1 ; condition: IC50 strictly below 0.1 µM. Does it hold?
[out] label 0

[in] Find out if reported IC50 for CCNC(=O)Nc1ccc(C(=O)Nc2ccccc2)cn1 is less than 0.1 µM
[out] label 0

[in] Quick check: does CCNC(=O)Nc1cc(Nc2cccnc2)c(C(=O)Nc2cccnc2)cn1 have IC50 under 0.1 µM?
[out] label 1

[in] Problem: For the molecule CCNC(=O)Nc1ccc(C(=O)Nc2ncc(C(=O)O)s2)cn1 , is IC50 under 0.1 µM?
[out] label 0

[in] Quick check: IC50 of CCNC(=O)Nc1cc(Nc2ccccc2)c(C(=O)Nc2ccccc2)cn1 under 0.1 µM?
[out] label 1

[in] Below 0.1 µM on IC50? Entry CCNC(=O)Nc1cc(-c2ccccc2)c(C(=O)Nc2cccc(Cl)c2)cn1
[out] label 0
